Provide the reported Phage binding ELISA signal, Anti-PSMA Fab of each item.
target.system: T1, PSMA Fab (006 PSMA Fab) (biotinylated (site not stated))
T1 construct: also called Anti-PSMA Fab; anti-PSMA Fab
experimental.protocol: clonal phage ELISA on biotinylated PSMA Fab captured on neutravidin plate, blocking buffer alone; anti-M13 HRP detection
Where no end group is shown, it is not given here.

Below are worked cases with known answers.
May I ask what Phage binding ELISA signal, Anti-PSMA Fab has been recorded for SEPVCTPMWMCTGI (peptide, not shown: large carriers, Clonal phage of the peptide-180 library, tested as crude phage supernatant) [Phage-3768] ?
1.35

May I ask what Phage binding ELISA signal, Anti-PSMA Fab has been recorded for LYGVCVPEWMCHGF (peptide, not shown: large carriers, Clonal phage of the peptide-180 library, tested as crude phage supernatant) [Phage-3766] ?
1.35

May I ask what Phage binding ELISA signal, Anti-PSMA Fab has been recorded for VVRVCEPSWMCAGF (peptide, not shown: large carriers, cysteine pairing not given here; also: displayed on phage as pIII fusion, Clonal phage of the peptide-180 library, tested as crude phage supernatant) [Phage-3767] ?
1.35

May I ask what Phage binding ELISA signal, Anti-PSMA Fab has been recorded for LVHLCKPPWMCHGF (peptide, not shown: large carriers, Clonal phage of the peptide-180 library, tested as crude phage supernatant) [Phage-3762] ?
1.36

May I ask what Phage binding ELISA signal, Anti-PSMA Fab has been recorded for DQRECIPHWMCAGF (peptide, not shown: large carriers, cysteine pairing not given here; also: displayed on phage as pIII fusion, Clonal phage of the peptide-180 library, tested as crude phage supernatant) [Phage-3763] ?
1.36

Next:
May I ask what Phage binding ELISA signal, Anti-PSMA Fab has been recorded for EVVACVPEWMCVGF (peptide, not shown: large carriers, Clonal phage of the peptide-180 library, tested as crude phage supernatant) [Phage-3761] ?
1.36

The origin of these recorded values is patent US20260242478A1.
